Recorded measurements of pIC50, one per entry
System Tested: human 11β-HSD1 (Homo sapiens)
Construct: stably transfected with a construct containing the full-length gene coding for the human 11β-HSD1 enzyme; expressed in transfected cells; host or cells: HEK293 (stably transfected, HEK293/11β-HSD1)
Sequence (P28845 whole entry): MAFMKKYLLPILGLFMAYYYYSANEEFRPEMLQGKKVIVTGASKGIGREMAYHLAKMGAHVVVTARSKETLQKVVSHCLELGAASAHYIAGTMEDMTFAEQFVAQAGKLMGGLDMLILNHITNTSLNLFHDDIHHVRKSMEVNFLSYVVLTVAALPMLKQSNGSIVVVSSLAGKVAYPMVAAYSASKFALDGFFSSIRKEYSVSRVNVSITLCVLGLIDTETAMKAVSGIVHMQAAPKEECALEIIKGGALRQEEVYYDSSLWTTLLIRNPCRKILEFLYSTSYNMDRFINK
Method: Cellular in vitro 11β-HSD1 enzyme inhibition assay (SPA, HEK293/11β-HSD1 cells)
Assay type: cell-based
Assay Setup: HEK293; potency groups; read-out: IC50 for 11β-HSD1 (HEK293)
pIC50: −log10 of the molar value.
Readout: pIC50

Molecule | System Tested | Readout | Result
O=C(c1csc(-c2cn[nH]c2)c1)N1C2CCC1CC(F)(c1ncccc1Cl)C2 (centres unmarked) | human 11β-HSD1 (Homo sapiens) | pIC50 | ≥ 7.00
O=C(c1csc(-c2cn[nH]c2)c1)N1C2CCC1CC(O)(c1cnccn1)C2 (centres unmarked) | human 11β-HSD1 (Homo sapiens) | pIC50 | ≥ 7.00
N#CC1(c2ccccn2)CC2CCC(C1)N2C(=O)c1csc(-c2cn[nH]c2)c1 (centres unmarked) | human 11β-HSD1 (Homo sapiens) | pIC50 | ≥ 7.00
Cn1nccc1C1(O)CC2CCC(C1)N2C(=O)c1csc(-c2cn[nH]c2)c1 (centres unmarked) | human 11β-HSD1 (Homo sapiens) | pIC50 | 6.30 to 7.00
O=C(c1csc(-c2cn[nH]c2)c1)N1C2CCC1CC(O)(c1ncccc1Cl)C2 (centres unmarked) | human 11β-HSD1 (Homo sapiens) | pIC50 | ≥ 7.00
